Taken from patent US4371537A.

EC50 by entry:
System: rhinovirus type 1A (RV-1A)
Assay: Tissue culture testing, rhinovirus type 1A in HeLa cells
Type: cell-based
Conditions: Enterovirus, 48 and 72 hours, NA = not active at the standard test conditions, read-out: RV-1A: lowest concentration of the compound necessary to cause a 50 percent reduction in cytopathic effect

COMPOUND	TARGET	EC50
CCS(=O)(=O)c1ccc(Oc2cc(Cl)c(Cl)cc2Cl)nc1 [Example 48]	rhinovirus type 1A (RV-1A)	< 3.12 µg/mL
CSc1ccc(Oc2ccc(S(C)(=O)=O)cn2)cc1 [Example 37]	rhinovirus type 1A (RV-1A)	< 3 µg/mL
CCS(=O)(=O)c1ccc(Oc2ccc(C(=O)c3ccccc3)cc2)nc1 [Example 43]	rhinovirus type 1A (RV-1A)	≤ 3.12 µg/mL
CC[S+]([O-])c1ccc(Oc2ccc(Cl)c(Cl)c2)nc1 (stereo not shown) [Example 46]	rhinovirus type 1A (RV-1A)	< 3.12 µg/mL
CS(=O)(=O)c1ccc(Oc2cccc(Br)c2)nc1 [Example 35]	rhinovirus type 1A (RV-1A)	< 6.25 µg/mL
CS(=O)(=O)c1ccc(Oc2ccc(Cl)c(Cl)c2)nc1 [Example 40]	rhinovirus type 1A (RV-1A)	≤ 0.31 µg/mL
CCS(=O)(=O)c1cccnc1Oc1ccc(Cl)c(Cl)c1 [Example 73]	rhinovirus type 1A (RV-1A)	25 µg/mL
CS(=O)(=O)c1cccc(Oc2ccc(C(=O)c3ccccc3)cc2)n1 [Example 68]	rhinovirus type 1A (RV-1A)	6.25 µg/mL
CS(=O)(=O)c1cc(Oc2ccc(Cl)c(Cl)c2)ccn1 [Example 66]	rhinovirus type 1A (RV-1A)	12.5 µg/mL
CC(C)S(=O)(=O)c1ccc(Oc2ccc(C(=O)c3ccccc3)cc2)nc1 [Example 51]	rhinovirus type 1A (RV-1A)	4 µg/mL
CS(=O)(=O)c1ccc(Oc2ccc(C(=O)c3ccccc3)cc2)nc1 [Example 31]	rhinovirus type 1A (RV-1A)	12.5 µg/mL
CC(=O)c1ccc(Oc2ccc(S(=O)(=O)C3CCCCC3)cn2)cc1 [Example 56]	rhinovirus type 1A (RV-1A)	~12.5 µg/mL
CC(=O)c1ccc(Oc2ccc(S(=O)(=O)C(C)C)cn2)cc1 [Example 52]	rhinovirus type 1A (RV-1A)	50 µg/mL
CCCCCCS(=O)(=O)c1ccc(Oc2ccc(Cl)c(Cl)c2)nc1 [Example 54]	rhinovirus type 1A (RV-1A)	12.5 µg/mL
CCS(=O)(=O)c1cccnc1Oc1ccc(C(=O)c2ccccc2)cc1 [Example 74]	rhinovirus type 1A (RV-1A)	50 µg/mL
CCS(=O)(=O)c1ccc(Oc2ccc(Oc3ccccc3)cc2)nc1 [Example 44]	rhinovirus type 1A (RV-1A)	6.25 µg/mL
C[S+]([O-])c1ccc(Oc2ccc(Cl)c(Cl)c2)nc1 (stereo not shown) [Example 39]	rhinovirus type 1A (RV-1A)	0.625 µg/mL
CCSc1ccc(Oc2ccc(Cl)c(Cl)c2)nc1 [Example 45]	rhinovirus type 1A (RV-1A)	2.5 µg/mL
CS(=O)(=O)c1ccc(Oc2cccc(C#N)c2)nc1 [Example 36]	rhinovirus type 1A (RV-1A)	12.5 µg/mL
CS(=O)(=O)c1ccc(Oc2ccc(C#N)cc2)nc1 [Example 30]	rhinovirus type 1A (RV-1A)	50 µg/mL
CS(=O)(=O)c1cccnc1Oc1ccc(Cl)c(Cl)c1 [Example 71]	rhinovirus type 1A (RV-1A)	25 µg/mL
CS(=O)(=O)c1cccc(Oc2ccc(Br)cc2)n1 [Example 70]	rhinovirus type 1A (RV-1A)	25 µg/mL
CCS(=O)(=O)c1ccc(Oc2ccc(Cl)c(Cl)c2)nc1 [Example 47]	rhinovirus type 1A (RV-1A)	0.312 µg/mL
CS(=O)(=O)c1cccc(Oc2ccc(Cl)c(Cl)c2)n1 [Example 67]	rhinovirus type 1A (RV-1A)	3.12 µg/mL
CS(=O)(=O)c1ccnc(Oc2ccc(Cl)c(Cl)c2)c1 [Example 65]	rhinovirus type 1A (RV-1A)	25 µg/mL
CC(C)S(=O)(=O)c1ccc(Oc2ccc(Br)cc2)nc1 [Example 50]	rhinovirus type 1A (RV-1A)	1.25 µg/mL
CC(C)S(=O)(=O)c1ccc(Oc2ccc(Cl)c(Cl)c2)nc1 [Example 49]	rhinovirus type 1A (RV-1A)	< 0.312 µg/mL
C[S+]([O-])c1cncc(Oc2ccc(Cl)c(Cl)c2)c1 (stereo not shown) [Example 76]	rhinovirus type 1A (RV-1A)	12.5 µg/mL
O=S(=O)(Cc1ccccc1)c1ccc(Oc2ccc(Cl)c(Cl)c2)nc1 [Example 63]	rhinovirus type 1A (RV-1A)	5 µg/mL
O=C(c1ccccc1)c1ccc(Oc2ccc(S(=O)(=O)Cc3ccccc3)cn2)cc1 [Example 62]	rhinovirus type 1A (RV-1A)	25 µg/mL
O=S(=O)(c1ccccc1)c1ccc(Oc2ccc(Br)cc2)nc1 [Example 61]	rhinovirus type 1A (RV-1A)	10 µg/mL

* * *

Assay: Cytotoxicity in tissue culture testing (HeLa monolayers)
Format: cell-based
Details: human; HeLa cells; observed at 48 and 72 hours post-treatment; read-out: Cytotoxicity: concentration of the compound found to be toxic to the cell
RESULT TYPE: MCC

MOLECULE	RESULT TYPE	MEASURED
CCCCCCS(=O)(=O)c1ccc(Oc2ccc(Cl)c(Cl)c2)nc1 [Example 54]	MCC	> 50 µg/mL
CS(=O)(=O)c1cncc(Oc2ccc(Cl)c(Cl)c2)c1 [Example 77]	MCC	> 50 µg/mL
CC(=O)c1ccc(Oc2ccc(S(C)(=O)=O)cn2)cc1 [Example 34]	MCC	> 50 µg/mL
O=S(=O)(Cc1ccccc1)c1ccc(Oc2ccc(Br)cc2)nc1 [Example 64]	MCC	≥ 100 µg/mL
CS(=O)(=O)c1ccc(Oc2ccc(Oc3ccccc3)cc2)nc1 [Example 28]	MCC	> 100 µg/mL
CS(=O)(=O)c1ccc(Oc2cccc(Br)c2)nc1 [Example 35]	MCC	> 100 µg/mL
CS(=O)(=O)c1ccc(Oc2ccc(Br)cc2)nc1 [Example 29]	MCC	50 µg/mL
CSc1ccc(Oc2ccc(Cl)c(Cl)c2)nc1 [Example 38]	MCC	25 µg/mL
CS(=O)(=O)c1cc(Oc2ccc(Cl)c(Cl)c2)ccn1 [Example 66]	MCC	25 µg/mL
O=S(=O)(c1ccc(Oc2ccc(Cl)c(Cl)c2)nc1)C1CCCCC1 [Example 58]	MCC	50 µg/mL
CS(=O)(=O)c1ccc(Oc2ccc(C#N)cc2)nc1 [Example 30]	MCC	> 100 µg/mL
O=S(=O)(c1ccccc1)c1ccc(Oc2ccc(Cl)c(Cl)c2)nc1 [Example 60]	MCC	≥ 100 µg/mL
O=S(=O)(Cc1ccccc1)c1ccc(Oc2ccc(Cl)c(Cl)c2)nc1 [Example 63]	MCC	25 µg/mL
